The reported measurements were obtained from paper PMC5805805.

assay: Everolimus pharmacokinetics in whole blood (HPLC-MS/MS), single-agent and combined with metformin; format: in vivo, human; conditions: human, whole blood, oral, everolimus 10 mg qd, in combination with metformin, n = 5, mean (SD); read-out: λz (converted)
property-label: k el (s⁻¹)
Express it in s⁻¹; write the number only.

Prompt: Please look up its k el: CO[C@H]1C[C@@H]2CC[C@@H](C)[C@@](O)(O2)C(=O)C(=O)N2CCCC[C@H]2C(=O)O[C@H]([C@H](C)C[C@@H]2CC[C@@H](OCCO)[C@H](OC)C2)CC(=O)[C@H](C)/C=C(\C)[C@@H](O)[C@@H](OC)C(=O)[C@H](C)C[C@H](C)/C=C/C=C/C=C/1C
Response: 8.06e-06

* * *

assay: Everolimus pharmacokinetics in whole blood (HPLC-MS/MS), single-agent and combined with metformin; assay type: in vivo, human; conditions: human, whole blood, oral, clearance, everolimus as single agent
property-label: clearance (mL/min)
Express it in mL/min; write the number only.

Prompt: Please look up its clearance: CO[C@H]1C[C@@H]2CC[C@@H](C)[C@@](O)(O2)C(=O)C(=O)N2CCCC[C@H]2C(=O)O[C@H]([C@H](C)C[C@@H]2CC[C@@H](OCCO)[C@H](OC)C2)CC(=O)[C@H](C)/C=C(\C)[C@@H](O)[C@@H](OC)C(=O)[C@H](C)C[C@H](C)/C=C/C=C/C=C/1C
Response: 162

* * *

assay: Everolimus pharmacokinetics in whole blood (HPLC-MS/MS), single-agent and combined with metformin; format: in vivo, human; conditions: human, whole blood, oral; everolimus 10 mg qd, single-agent (day 7), n = 5, mean (SD); read-out: Cmax
property-label: Cmax (ng/mL)
Express it in ng/mL; write the number only.

Prompt: Please look up its Cmax: CO[C@H]1C[C@@H]2CC[C@@H](C)[C@@](O)(O2)C(=O)C(=O)N2CCCC[C@H]2C(=O)O[C@H]([C@H](C)C[C@@H]2CC[C@@H](OCCO)[C@H](OC)C2)CC(=O)[C@H](C)/C=C(\C)[C@@H](O)[C@@H](OC)C(=O)[C@H](C)C[C@H](C)/C=C/C=C/C=C/1C [everolimus]
Response: 73.1

* * *

test: clinical; settings: human, in vivo, 500 mg
property-label: k el (s⁻¹)
Express it in s⁻¹; write the number only.

Prompt: Please look up its k el: CN(C)C(=N)N=C(N)N
Response: 4.72e-05

* * *

experiment: Everolimus pharmacokinetics in whole blood (HPLC-MS/MS), single-agent and combined with metformin; assay type: in vivo, human; details: human, whole blood, oral, everolimus 10 mg qd, in combination with metformin, AUC t = 0 to 24 h, n = 5, mean (SD); read-out: AUC
property-label: AUC (ng·h/mL)
Express it in ng·h/mL; write the number only.

Prompt: Please look up its AUC: CO[C@H]1C[C@@H]2CC[C@@H](C)[C@@](O)(O2)C(=O)C(=O)N2CCCC[C@H]2C(=O)O[C@H]([C@H](C)C[C@@H]2CC[C@@H](OCCO)[C@H](OC)C2)CC(=O)[C@H](C)/C=C(\C)[C@@H](O)[C@@H](OC)C(=O)[C@H](C)C[C@H](C)/C=C/C=C/C=C/1C
Response: 639

* * *

experiment: Everolimus pharmacokinetics in whole blood (HPLC-MS/MS), single-agent and combined with metformin; type: in vivo, human; conditions: human, whole blood, oral, everolimus in combination with metformin (day 15), all 7 patients, mean (SD)
property-label: half-life (min)
Express it in min; write the number only.

Prompt: Please look up its half-life: CO[C@H]1C[C@@H]2CC[C@@H](C)[C@@](O)(O2)C(=O)C(=O)N2CCCC[C@H]2C(=O)O[C@H]([C@H](C)C[C@@H]2CC[C@@H](OCCO)[C@H](OC)C2)CC(=O)[C@H](C)/C=C(\C)[C@@H](O)[C@@H](OC)C(=O)[C@H](C)C[C@H](C)/C=C/C=C/C=C/1C
Response: 1390
